Each item that follows carries a reported inhibition.
testedSystem: Plasminogen (Homo sapiens) (UniProt P00747)
Sequence (P00747 97-580 limits assumed): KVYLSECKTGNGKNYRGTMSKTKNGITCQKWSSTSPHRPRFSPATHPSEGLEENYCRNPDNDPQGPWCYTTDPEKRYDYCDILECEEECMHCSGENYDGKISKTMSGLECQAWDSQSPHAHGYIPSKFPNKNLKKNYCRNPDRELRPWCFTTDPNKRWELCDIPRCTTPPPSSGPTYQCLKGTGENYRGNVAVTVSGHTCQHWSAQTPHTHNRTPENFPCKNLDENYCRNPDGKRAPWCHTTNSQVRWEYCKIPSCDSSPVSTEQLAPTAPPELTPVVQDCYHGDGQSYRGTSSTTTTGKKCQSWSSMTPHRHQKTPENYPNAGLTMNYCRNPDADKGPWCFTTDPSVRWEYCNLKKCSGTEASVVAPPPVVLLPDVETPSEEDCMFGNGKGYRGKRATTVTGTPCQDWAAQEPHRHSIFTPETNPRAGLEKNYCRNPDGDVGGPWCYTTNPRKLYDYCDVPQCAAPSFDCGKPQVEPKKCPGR
Sequence (P00747 581-810 limits assumed): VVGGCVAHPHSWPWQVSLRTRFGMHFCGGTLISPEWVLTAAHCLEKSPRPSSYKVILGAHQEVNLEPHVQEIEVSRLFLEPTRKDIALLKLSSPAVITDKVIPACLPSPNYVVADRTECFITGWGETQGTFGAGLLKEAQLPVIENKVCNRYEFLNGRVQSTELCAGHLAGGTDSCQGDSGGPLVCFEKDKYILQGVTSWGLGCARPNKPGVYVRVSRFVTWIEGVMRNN
assayInfo: Inhibition of human plasmin at 20 ug/mL
Just the number in %, nothing appended.

Guide cases for inhibition, answers given:
CCCCOC(=O)Nc1cccc(NC(=O)NC(=O)N2CCN(C(=O)CN3C(=O)C(=O)c4cc([N+](=O)[O-])ccc43)CC2)c1 82
O=C1C(=O)N(CC(=O)N2CCN(C(=O)Nc3cccc4ccccc34)CC2)c2ccc(OC(F)(F)F)cc21 77
NC(=O)CN1C(=O)C(=O)c2ccccc21 29
O=C(CN1C(=O)C(=O)c2ccccc21)c1ccc(Cl)cc1 87
N#Cc1cccc(NC(=O)N2CCN(C(=O)CN3C(=O)C(=O)c4cc(OC(F)(F)F)ccc43)CC2)c1 57
Cc1ccc(C(=O)CN2C(=O)C(=O)c3ccccc32)cc1 84
O=C(CN1C(=O)C(=O)c2cc(OC(F)(F)F)ccc21)c1ccc2ccccc2c1 86
O=C(CN1C(=O)C(=O)c2ccccc21)c1ccc(F)cc1 89

Which measured inhibition value corresponds to `CC(C)(C)C(=O)CN1C(=O)C(=O)c2ccccc21` ?
55

Which measured inhibition value corresponds to `O=C1C(=O)N(CC(=O)N2CCN(C(=O)Nc3cccc4ccccc34)CC2)c2ccc(Cl)cc21` ?
80
